TEST TARGET: delta opioid receptor (Rattus norvegicus)
Sequence (P33533 whole entry): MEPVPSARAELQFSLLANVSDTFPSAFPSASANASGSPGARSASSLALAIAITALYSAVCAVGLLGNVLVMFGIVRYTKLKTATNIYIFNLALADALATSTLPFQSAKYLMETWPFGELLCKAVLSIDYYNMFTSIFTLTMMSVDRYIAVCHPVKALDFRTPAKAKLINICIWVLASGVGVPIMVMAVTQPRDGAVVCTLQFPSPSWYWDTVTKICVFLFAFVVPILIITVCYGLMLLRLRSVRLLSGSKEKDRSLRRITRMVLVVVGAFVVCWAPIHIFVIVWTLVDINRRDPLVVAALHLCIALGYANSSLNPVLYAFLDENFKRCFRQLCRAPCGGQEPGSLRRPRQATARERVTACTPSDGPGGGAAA
ASSAY PROCEDURE: Rat brain delta opioid receptor binding assay ([3H]DPDPE)
MEASUREMENT CONTEXT: DOR Ki, Rat delta opioid receptor binding constant; rat forebrain membranes, ~4 nM [3H]DPDPE
# log10(Ki) per entry
Could you please treat all values as log10 of Ki in nM?

// worked examples, log10(Ki) included
COMPOUND	log10(Ki)
S=c1[nH]c(-c2ccc3c(c2)Oc2ccccc2C3=C2CC3CCC(C2)N3)no1 [Cpd 5]	0.84
Cn1nnc(-c2ccc3c(c2)Oc2ccccc2C3=C2CC3CCC(C2)N3)n1 [Cpd 16]	1.48
CN(C(=O)c1ccc2c(c1)Oc1ccccc1C2=C1CC2CCC(C1)N2)c1ccccc1 [Cpd 14]	1.43
c1cncc(-c2ccc3c(c2)Sc2ccccc2C3=C2CC3CCC(C2)N3)c1 [Cpd 112]	2.68
Fc1ccc(-c2ccc3c(c2)Oc2ccccc2C3=C2CC3CCC(C2)N3)cc1 [Cpd 54]	3.65

Q) Value lookup for log10(Ki); key = O=C(NC(CO)Cc1ccccc1)c1ccc2c(c1)Oc1ccccc1C2=C1CC2CCC(C1)N2 (single isomer, unassigned) [Cpd 27]
A) 2.00

Q) Value lookup for log10(Ki); key = N=C(c1ccc2c(c1)Oc1ccccc1C2=C1CC2CCC(C1)N2)N1CCOCC1 [Cpd 50]
A) 3.25

Q) Value lookup for log10(Ki); key = c1ccc2c(c1)Sc1cc(-c3nnn[nH]3)ccc1C2=C1C[C@H]2CC[C@@H](C1)N2 (single isomer, unassigned) [Cpd 103]
A) 1.00

Q) Value lookup for log10(Ki); key = O=C(c1ccc2c(c1)Oc1ccccc1C2=C1CC2CCC(C1)N2)N1CCC(O)C1 (single isomer, unassigned) [Cpd 127]
A) 2.28

Q) Value lookup for log10(Ki); key = c1cncc(-c2ccc3c(c2)Sc2ccccc2C3=C2CC3CCC(C2)N3Cc2ccoc2)c1 [Cpd 116]
A) 1.97

---

TEST TARGET: delta opioid receptor (Rattus norvegicus)
ASSAY PROCEDURE: Rat brain delta opioid receptor binding assay ([3H]DPDPE)
MEASUREMENT CONTEXT: DOR Ki, Rat delta opioid receptor binding constant; rat forebrain membranes, ~4 nM [3H]DPDPE
OBSERVABLE: Ki (µM)
Write it as a number; the unit µM goes unstated.

MOLECULE	UNIT OF MEASURE	NUMBER
Brc1ccc2c(c1)Sc1ccccc1C2=C1CC2CCC(C1)N2	µM	2.9

Q) Value lookup for Ki; key = Nc1ccccc1-c1ccc2c(c1)Oc1ccccc1C2=C1CC2CCC(C1)N2
A) 0.0774

Q) Value lookup for Ki; key = N#Cc1ccc2c(c1)Sc1ccccc1C2=C1CC2CCC(C1)N2
A) 0.629

Q) Value lookup for Ki; key = O=c1[nH]c(-c2ccc3c(c2)Oc2ccccc2C3=C2CC3CCC(C2)N3)no1
A) 0.00678

Q) Value lookup for Ki; key = O=C(c1ccc2c(c1)Oc1ccccc1C2=C1CC2CCC(C1)N2)N1CCC(O)C1 (single isomer, unassigned) [Cpd 70]
A) 0.063

Q) Value lookup for Ki; key = O=C(Nc1ccccc1)c1ccc2c(c1)Oc1ccccc1C2=C1CC2CCC(C1)N2
A) 0.813

Q) Value lookup for Ki; key = CCN(CC)C(=N)c1ccc2c(c1)Oc1ccccc1C2=C1CC2CCC(C1)N2 [Cpd 125]
A) 0.0063

Q) Value lookup for Ki; key = CC(=O)Nc1ccccc1-c1ccc2c(c1)Sc1ccccc1C2=C1CC2CCC(C1)N2
A) 0.09

Q) Value lookup for Ki; key = CCc1cnc(-c2ccc3c(c2)Oc2ccccc2C3=C2CC3CCC(C2)N3)[nH]1
A) 0.081
